molecular target: LHRH (Rattus norvegicus, UniProt P30969); construct: endogenous in cells; assay: in vitro test for LHRH antagonist potency (pA2); format: cell-based; settings: negative logarithm of the antagonist concentration required to shift the response curve produced by the agonist leuprolide to two-fold higher concentration
Sequence (P30969 whole entry): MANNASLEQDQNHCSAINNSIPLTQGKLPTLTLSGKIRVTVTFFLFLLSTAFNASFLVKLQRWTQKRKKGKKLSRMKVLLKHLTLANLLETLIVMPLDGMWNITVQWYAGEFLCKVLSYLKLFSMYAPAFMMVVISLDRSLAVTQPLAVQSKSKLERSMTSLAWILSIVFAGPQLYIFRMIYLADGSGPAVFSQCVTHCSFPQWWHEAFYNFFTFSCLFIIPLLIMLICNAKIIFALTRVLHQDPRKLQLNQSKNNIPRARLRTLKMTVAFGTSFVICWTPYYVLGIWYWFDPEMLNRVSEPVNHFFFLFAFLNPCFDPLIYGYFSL
Where a SMILES comes first, the peptide text is derived from it. Side-chain parts run from the residue outwards. [ ]: non-standard residue; d: D form. The star is where a group is joined. d2Nal(N,N-C(O)(CH2)4) = O=C1CCCCN1[C@H](Cc1ccc2ccccc2c1)C(=O)*; d2Nal(N,N-(CH2)3CO) = O=C1CCCN1[C@H](Cc1ccc2ccccc2c1)C(=O)*; Shikimoyl = O=C(C1=C[C@@H](O)[C@@H](O)[C@H](O)C1)*; dPhe(4-Cl) = N[C@H](Cc1ccc(Cl)cc1)C(=O)O; d(hCit) = NC(=O)NCCCC[C@@H](N)C(=O)O; Lys(iPr) = CC(C)NCCCC[C@H](N)C(=O)O; NMeY = CN[C@@H](Cc1ccc(O)cc1)C(=O)O; hArg = N=C(N)NCCCC[C@H](N)C(=O)O; d3Pal = N[C@H](Cc1cccnc1)C(=O)O; Nicotinoyl = O=C(c1cccnc1)*
Kindly state Kb for each of the entries shown.
Write your answer as a measured quantity: the number, then the unit.

Record excerpt, results attached:
>>> result("CC(C)C[C@H](NC(=O)[C@@H](CCCCNC(=O)c1cccnc1)NC(=O)[C@H](Cc1ccc(O)cc1)N(C)C(=O)[C@H](CO)NC(=O)[C@@H](Cc1cccnc1)NC(=O)[C@@H](Cc1ccc(Cl)cc1)NC(=O)[C@@H](Cc1ccc2ccccc2c1)N1CCCC1=O)C(=O)N[C@@H](CCCCNC(C)C)C(=O)N1CCC[C@H]1C(=O)N[C@H](C)C(N)=O [Example 7] ({d2Nal(N,N-(CH2)3CO)}-[dPhe(4-Cl)][d3Pal]S[NMeY][dK](Nicotinoyl)L[Lys(iPr)]P[dA]-NH2)")
"0.0372 nM"
>>> result("CC(C)C[C@H](NC(=O)[C@@H](CCCCNC(=O)CNC(=O)C1=C[C@@H](O)[C@@H](O)[C@H](O)C1)NC(=O)[C@H](Cc1ccc(O)cc1)N(C)C(=O)[C@H](CO)NC(=O)[C@@H](Cc1cccnc1)NC(=O)[C@@H](Cc1ccc(Cl)cc1)NC(=O)[C@@H](Cc1ccc2ccccc2c1)N1CCCCC1=O)C(=O)N[C@@H](CCCCNC(=N)N)C(=O)N1CCC[C@H]1C(=O)N[C@H](C)C(N)=O [Example 11] ({d2Nal(N,N-C(O)(CH2)4)}-[dPhe(4-Cl)][d3Pal]S[NMeY][dK]([Gly-Shikimoyl])L[hArg]P[dA]-NH2)")
"0.0209 nM"

Attention now turns to another entry.
Data request, read-out Kb, for CC(C)C[C@H](NC(=O)[C@@H](CCCCNC(N)=O)NC(=O)[C@H](Cc1ccc(O)cc1)NC(=O)[C@H](CO)NC(=O)[C@@H](Cc1cccnc1)NC(=O)[C@@H](Cc1ccc(Cl)cc1)NC(=O)[C@@H](Cc1ccc2ccccc2c1)N1CCCC1=O)C(=O)N[C@@H](CCCCNC(C)C)C(=O)N1CCC[C@H]1C(=O)N[C@H](C)C(N)=O [Example 12] ({d2Nal(N,N-(CH2)3CO)}-[dPhe(4-Cl)][d3Pal]SY[d(hCit)]L[Lys(iPr)]P[dA]-NH2)
0.0178 nM
